The reported measurements were obtained from PubChem BioAssay (NCI).

System: HCT-15 colon
Test: NCI tumour cell line growth inhibition, 48 h
MEASURED ATTRIBUTE: TGI

Give me measured TGI, please, for this molecule: CCO/N=[N+](\[O-])N(CC)CC
> 100 µM

Give me measured TGI, please, for this molecule: O=C(CSC(=S)N1CCOCC1)Nc1nc2c(s1)CCCC2
> 100 µM

Give me measured TGI, please, for this molecule: COc1cc[n+](C)cc1
> 100 µM

Give me measured TGI, please, for this molecule: O=C1C(Cl)=C(Nc2cccc(O)c2)C(=O)N1c1cc(Cl)c(Cl)cc1Cl
30.1 µM

Give me measured TGI, please, for this molecule: CC(=O)Nc1ccc2c3c(cc(O)c2c1)N(C(=O)CCCCC(=O)Nc1ccc2c4c(cc(O)c2c1)N(C(=O)OC(C)(C)C)CC4CCl)CC3CCl (stereo not given)
48.2 µM

Give me measured TGI, please, for this molecule: O=NNc1nc(-c2cccnc2)nc2ccccc12
> 100 µM

Give me measured TGI, please, for this molecule: OC1COC(n2c3ccc(Br)cc3c3ccc4c5ccccc5[nH]c4c32)C(O)C1O (stereo not given)
15.7 µM

Give me measured TGI, please, for this molecule: O=C(CC(C(=O)c1ccoc1)c1ccco1)c1ccco1 (stereo not given)
> 100 µM

Give me measured TGI, please, for this molecule: COc1cccc(NC(=O)CC(=O)N2N=C(C)C(N=Nc3ccc(S(=O)(=O)c4ccc(N=NC5C(=O)N(C(=O)CC(=O)Nc6cccc(OC)c6)N=C5C)cc4)cc3)C2=O)c1 (stereo not given)
> 100 µM

Give me measured TGI, please, for this molecule: COc1ccc2oc3cccc(NCCN(C)C)c3c(=O)c2c1
27.1 µM

====

Test system: SN12C renal
Assay: NCI tumour cell line growth inhibition, 48 h
I'd appreciate it if you could supply TGI values for the items below.

Please look at O=[N+]([O-])c1cccnc1NCC1(CO)CC(Cc2ccccc2)C1 (centres undefined) and tell me its recorded TGI on SN12C renal.
> 100 µM

Please look at CC1(C)N=C(N)N=C(N)N1c1cccc(OCCOc2ccc([N+](=O)[O-])cc2)c1 and tell me its recorded TGI on SN12C renal.
> 100 µM

Please look at Cc1ccc(NC(=O)/C(=N\Nc2ccc([N+](=O)[O-])cc2[N+](=O)[O-])C2C(=O)NC(=O)NC2=O)cc1 and tell me its recorded TGI on SN12C renal.
> 100 µM

Please look at CC(=O)n1c2ccccc2c2nc3nc(Oc4ccc(C)cc4)c4ccccc4c3cc21 and tell me its recorded TGI on SN12C renal.
> 100 µM

Please look at COCc1cc2c(cc1/C=C/[N+](=O)[O-])OCO2 and tell me its recorded TGI on SN12C renal.
34 µM

Please look at CC1OC2CC(=O)OC2C2=C1C(=O)c1c(O)c3c(c(O)c1C2=O)C1CC(O)C3(O)C(C)O1 (centres undefined) and tell me its recorded TGI on SN12C renal.
0.539 µM

Please look at COC(=O)C1C2C=CC(C2)N1[C@@H](C)c1ccccc1 (some centres undefined) and tell me its recorded TGI on SN12C renal.
> 100 µM

Please look at C[C@@H]1COCCN1c1cc(C2(S(C)(=N)=O)CC2)nc(-c2ccnc3[nH]ccc23)n1 (some centres undefined) and tell me its recorded TGI on SN12C renal.
89.6 µM

Please look at O=C(CN1CCN(c2ccccc2)CC1)N1CCc2c([nH]c3ccccc23)C1c1cccnc1 (centres undefined) and tell me its recorded TGI on SN12C renal.
> 100 µM
